Provenance of the data: patent US7531545B2

molecular target: β-secretase (BACE) (Homo sapiens); construct: purchased Panvera; assay: BACE FS1 Assay (% Inhibition and Ki); format: biochemical; details: 3 μM test compound; FS1 substrate; read-out: % Inhibition (FS) @ 3 μM
Sequence (P56817 46-501): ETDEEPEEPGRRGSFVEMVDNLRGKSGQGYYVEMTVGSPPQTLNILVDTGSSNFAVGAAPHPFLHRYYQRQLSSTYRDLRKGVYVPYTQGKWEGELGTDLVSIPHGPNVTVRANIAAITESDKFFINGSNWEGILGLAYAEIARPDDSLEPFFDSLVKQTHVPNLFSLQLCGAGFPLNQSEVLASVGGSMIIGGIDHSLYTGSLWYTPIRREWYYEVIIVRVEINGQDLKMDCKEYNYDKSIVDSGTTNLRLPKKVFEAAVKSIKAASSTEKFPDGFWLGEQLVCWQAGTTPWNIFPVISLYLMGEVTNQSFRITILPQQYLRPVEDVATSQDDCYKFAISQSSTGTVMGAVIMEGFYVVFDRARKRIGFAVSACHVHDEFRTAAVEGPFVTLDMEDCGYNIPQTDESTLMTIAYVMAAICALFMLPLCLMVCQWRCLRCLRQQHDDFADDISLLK
Counter-ions that a name gives are not always drawn.
endpoint: inhibition at 3 µM (%)
Provide only the numeric value, understood in %.

Value of measured inhibition at 3 µM for the entry `CC(C)[C@H](CCC(=O)N[C@H](CO)C(=O)O)N1Cc2cc(Oc3ccccc3)ncc2N=C1N` : 117

inhibition at 3 µM recorded for this compound, `COC(=O)[C@@H](CO)NC(=O)CC[C@@H](C(C)C)N1Cc2cc(Oc3ccccc3)ncc2N=C1N` , is 128

Short answer for CN(C(=O)CCC(CCO)N1Cc2cc(Oc3ccccc3)ncc2N=C1N)C1CCCCC1 (centres unmarked) : inhibition at 3 µM was 93

Looking up `CC(C)[C@H](CCC(=O)N(CCO)C(C)C)N1Cc2cc(Oc3ccccc3)ncc2N=C1N` , I see its inhibition at 3 µM listed as 97

Data point: CC(C)C(CCC(=O)N(CCO)C1CCC(C#N)CC1)N1Cc2cc(Oc3ccccc3)ncc2N=C1N (centres unmarked) ; inhibition at 3 µM = 114

Sample NC1=Nc2cnc(Oc3ccccc3)cc2CN1CCCC(=O)NC1C2CC3CC(C2)CC1C3 (centres unmarked) ; inhibition at 3 µM observed: 138

Lab book: inhibition at 3 µM of `CC(C)[C@H](CCC(=O)N(C)[C@H]1CC[C@@H](C(=O)O)CC1)N1Cc2cc(Oc3ccccc3)ncc2N=C1N` noted as 115

Record summary for `CN(CCCCC(=O)O)C(=O)CC[C@@H](C1CCCCC1)N1Cc2cc(Oc3ccccc3)ncc2N=C1N` : reported inhibition at 3 µM = 105

The recorded inhibition at 3 µM for `CN(C(=O)CC[C@@H](C1CCCCC1)N1Cc2cc(-c3ccccc3F)ncc2N=C1N)C1CCCCC1` is 132

For record `CC(C)[C@H](CCC(=O)N[C@@H](COCc1ccccc1)C(=O)O)N1Cc2cc(Oc3ccccc3)ncc2N=C1N` the listed inhibition at 3 µM is 115

Quick note, inhibition at 3 µM for CCOC(=O)C1CCC(N(C)C(=O)CCC(C2CCCCC2)N2Cc3cc(Oc4ccccc4)ncc3N=C2N)CC1 (centres unmarked) landed at 86

Recorded result, `CC(C)[C@H](CO)NC(=O)CC[C@@H](C(C)C)N1Cc2cc(Oc3ccccc3)ncc2N=C1N` , inhibition at 3 µM: 119

Input CC(C)C(CCC(=O)N(CCO)C1CCC(C(=O)O)CC1)N1Cc2cc(Oc3ccccc3)ncc2N=C1N (centres unmarked) . Output inhibition at 3 µM: 104

Reported inhibition at 3 µM ( `NC1=Nc2cnc(Oc3ccccc3)cc2CN1CCNC(=O)C1CCCCC1` ) = 110

The recorded inhibition at 3 µM for entry CC(C)[C@H](CCC(=O)N(C)C1CCC(c2nnn[nH]2)CC1)N1Cc2cc(Oc3ccccc3)ncc2N=C1N (some centres unmarked) equals 87

Memo: `CC(C)[C@H](CCC(=O)N(CCCO)C1CCCCC1)N1Cc2cc(Oc3ccccc3)ncc2N=C1N` , reported inhibition at 3 µM: 104

Lab note: CC(C)[C@H](CCC(=O)N(C)[C@@H](COCc1ccccc1)C(=O)O)N1Cc2cc(Oc3ccccc3)ncc2N=C1N [Compound 52, trifluoroacetate salt] gave inhibition at 3 µM of 118

Entry under test: `CC(C)[C@H](CCC(=O)N(C)CCC(=O)O)N1Cc2cc(Oc3ccccc3)ncc2N=C1N` . Its inhibition at 3 µM was 80

Per the records, this compound ( `CCOC(=O)CCN(C)C(=O)CC[C@@H](C(C)C)N1Cc2cc(Oc3ccccc3)ncc2N=C1N` ) has inhibition at 3 µM equal to 110

Reported inhibition at 3 µM for CCOC(=O)C1CCC(N(CCO)C(=O)CCC(C(C)C)N2Cc3cc(Oc4ccccc4)ncc3N=C2N)CC1 (centres unmarked) was 108

get_value(item= CC(C)C(CCC(=O)N(C)C1CCC(C#N)CC1)N1Cc2cc(Oc3ccccc3)ncc2N=C1N (centres unmarked) , readout=inhibition at 3 µM) returns 120

GET /value?item= CCOC(=O)C1CCC(N(C)C(=O)CCC(C2CCOCC2)N2Cc3cc(Oc4ccccc4)ncc3N=C2N)CC1 (centres unmarked) &field=inhibition at 3 µM returns 110

What the record says about CN(C(=O)CCC(C1CCOCC1)N1Cc2cc(Oc3ccccc3)ncc2N=C1N)C1CCC(C(=O)O)CC1 (centres unmarked) : inhibition at 3 µM is 124

Lab note: `CC(C)[C@H](CCC(=O)N[C@H](COCc1ccccc1)C(=O)OCc1ccccc1)N1Cc2cc(Oc3ccccc3)ncc2N=C1N` gave inhibition at 3 µM of 116

Quick note, inhibition at 3 µM for `NC1=Nc2cnc(Oc3ccccc3)cc2CN1[C@@H](CCC(=O)N(CCOCc1ccccc1)[C@H]1CC[C@@H](C(=O)O)CC1)C1CCOCC1` landed at 115

compound CC(C)C(CCC(=O)N(C)C1CCC(C(=O)O)CC1)N1Cc2cc(Oc3ccccc3)ncc2N=C1N (centres unmarked) , inhibition at 3 µM observed: 138

Lab book: inhibition at 3 µM of `COC(=O)[C@H]1CC[C@H](N(C)C(=O)CC[C@@H](C2CCOCC2)N2Cc3cc(Oc4ccccc4)ncc3N=C2N)CC1` noted as 115

The recorded inhibition at 3 µM for entry `COc1ccccc1-c1cc2c(cn1)N=C(N)N([C@@H](CCC(=O)N(C)C1CCCCC1)C1CCCCC1)C2` equals 139

inhibition at 3 µM in this record for `NC1=Nc2cnc(Oc3ccccc3)cc2CN1[C@@H](CCC(=O)N(CCO)C1CCCCC1)C1CCCCC1` : 134

---

molecular target: human BACE-1 (Homo sapiens, UniProt P56817); test: CEREP BACE Inhibition Assay; assay type: biochemical; conditions: recombinant enzyme; read-out: IC50
Sequence (P56817 46-501): as above
endpoint: IC50 (nM)
Could you give me the number in nM? Just the number is fine.

The compound listed as `NC1=Nc2cnc(Oc3ccccc3)cc2CN1[C@@H](CCC(=O)NC[C@H]1CCCO1)C1CCCCC1` shows IC50 equal to 120

The reported value for `COC(=O)[C@@H](COCc1ccccc1)NC(=O)CC[C@@H](C(C)C)N1Cc2cc(Oc3ccccc3)ncc2N=C1N` in terms of IC50 is 140

Query `Cn1ccnc1CN(C(=O)CC[C@@H](C1CCCCC1)N1Cc2cc(Oc3ccccc3)ncc2N=C1N)C1CCCCC1` yields IC50 of 90

Field IC50 (entry `CC(C)(C)CCN(CCNC(=O)OC(C)(C)C)C(=O)CC[C@@H](C1CCCCC1)N1Cc2cc(Oc3ccccc3)ncc2N=C1N` ) reads 57

---

target: β-secretase (BACE) (Homo sapiens); construct: purchased Panvera; test: BACE FS1 Assay (% Inhibition and Ki); assay type: biochemical; conditions: 1 μM test compound; FS1 substrate; read-out: % Inhibition (FS) @ 1 μM
Structures can show the parent of a compound that is named as a salt.
Provide the reported inhibition at 1 µM of each item.
Dear colleague, please return just the value in %, with no unit written.

Record CC(C)(C)OC(=O)NCCN1Cc2cc(Oc3ccccc3)ncc2N=C1N [Compound 2] , field inhibition at 1 µM: 102

Lab note: measured inhibition at 1 µM of CC(C)[C@H](CCC(=O)N(C)[C@@H](COCc1ccccc1)C(=O)O)N1Cc2cc(Oc3ccccc3)ncc2N=C1N [Compound 52, trifluoroacetate salt] was 118

Quick note, inhibition at 1 µM for CC(C)[C@H](CCC(=O)N[C@H](CO)C(=O)O)N1Cc2cc(Oc3ccccc3)ncc2N=C1N [Compound 30] landed at 106

The compound listed as NC1=Nc2cnc(Oc3ccccc3)cc2CN1CCCC(=O)NC1C2CC3CC(C2)CC1C3 (stereo not shown) [Compound 6] shows inhibition at 1 µM equal to 139

Entry CC(C)C(CCC(=O)N(CCO)C1CCC(c2nnn[nH]2)CC1)N1Cc2cc(Oc3ccccc3)ncc2N=C1N (stereo not shown) [Compound 12] ; inhibition at 1 µM = 63

So, NC1=Nc2cnc(Oc3ccccc3)cc2CN1CCNC(=O)C1CCCCC1 [Compound 1] ? Its inhibition at 1 µM was 102

Field inhibition at 1 µM (entry CC(C)[C@H](CCC(=O)N[C@@H](COCc1ccccc1)C(=O)O)N1Cc2cc(Oc3ccccc3)ncc2N=C1N [Compound 47] ) reads 109

NC1=Nc2cnc(Oc3ccccc3)cc2CN1[C@@H](CCC(=O)N(CCOCc1ccccc1)[C@H]1CC[C@@H](C(=O)O)CC1)C1CCOCC1 [Compound 39] yielded inhibition at 1 µM of 110

Recorded inhibition at 1 µM (compound CC(C)[C@H](CCC(=O)N(CCCO)C1CCCCC1)N1Cc2cc(Oc3ccccc3)ncc2N=C1N [Compound 19] ): 103

What the record says about CC(C)[C@H](CCC(=O)N(C)CCC(=O)O)N1Cc2cc(Oc3ccccc3)ncc2N=C1N [Compound 16] : inhibition at 1 µM is 51
